Data provenance: paper PMC4854767

Test: in vivo
Settings: NOD-scid/IL2Rγ−/− (NSG; NOD.Cg-Prkdcscid Il2rgtm1Wjl/SzJ), mouse, plasma, po, 800 mg/kg
measure-name: Tmax

- CS(=O)(=O)N1CCN(Cc2cc3nc(-c4cccc5[nH]ncc45)nc(N4CCOCC4)c3s2)CC1: 15 to 30 min
